Target: Cyclin-dependent kinase 2/cyclin E (Homo sapiens) (UniProt P24864+P24941+O96020)
Details: at 1 µM
Documented residual activity across a set of compounds
Record the value in %, omitting the unit from your answer.

compound string	residual activity, %
O=Nc1c(-c2c(O)[nH]c3ccccc23)[nH]c2ccccc12	6
Nc1n[nH]c2nnc(-c3c(-c4ccccc4)nn4ccccc34)cc12	93
Nc1cccc(-c2cc3c(Oc4cccc(O)c4)ncnc3[nH]2)c1	91
NC(=O)c1ccc2[nH]c(-c3ccc(Oc4ccc(Cl)cc4)cc3)nc2c1	91
O=C(Nc1cccc(Nc2nccc(Nc3cccc(C(F)(F)F)c3)n2)c1)C1CC1	94
O=C1c2ccccc2-[n+]2ccc3c([nH]c4ccccc43)c21	92

Lab note: measured residual activity of Cc1cc2ncc(-c3ccccc3)nc2cc1C was 100

Lab note: measured residual activity of O=C1NC(=O)c2c1c1c3ccccc3[nH]c1c1[nH]c3cc(Br)ccc3c21 was 63

Lab note: measured residual activity of COc1cccc(-c2cc(=O)c3ccccc3o2)c1N was 96
